Assay: Binding constants of Motor1 towards guests
Conditions: host Motor1
Measured quantity: Ka, binding constant of Motor1 towards guest

Worked examples follow.
Molecule	Reported measurement
CC(=O)O[C@H]1C[C@@H]2CC[C@@H]3[C@H](CC[C@@]4(C)[C@H]3C[C@H]([N+]3(C)CCCCC3)[C@@H]4OC(C)=O)[C@@]2(C)C[C@@H]1N1CCCCC1	5.8 ± 0.9 × 10^6
COc1ccc(CC2c3cc(OC)c(OC)cc3CC[N+]2(C)CCC(=O)OCCCCCOC(=O)CC[N+]2(C)CCc3cc(OC)c(OC)cc3C2Cc2ccc(OC)c(OC)c2)cc1OC (stereo not shown)	1.4 ± 0.1 × 10^6
CC[N+](CC)(CC)CCOc1cccc(OCC[N+](CC)(CC)CC)c1OCC[N+](CC)(CC)CC	6.2 ± 0.5 × 10^6

Reported Ka, binding constant of Motor1 towards guest for "COc1cc2c3cc1Oc1cc(ccc1O)C[C@@H]1c4c(cc(OC)c(O)c4Oc4ccc(cc4)C[C@@H]3N(C)CC2)CC[N+]1(C)C" was 4.7 ± 0.2 × 10^5
